Would you kindly list binding signal for each of these sequences?
Biological target: GST-ANAC092(1-285) full length (Arabidopsis thaliana, UniProt Q9FKA0 1-285)
Sequence: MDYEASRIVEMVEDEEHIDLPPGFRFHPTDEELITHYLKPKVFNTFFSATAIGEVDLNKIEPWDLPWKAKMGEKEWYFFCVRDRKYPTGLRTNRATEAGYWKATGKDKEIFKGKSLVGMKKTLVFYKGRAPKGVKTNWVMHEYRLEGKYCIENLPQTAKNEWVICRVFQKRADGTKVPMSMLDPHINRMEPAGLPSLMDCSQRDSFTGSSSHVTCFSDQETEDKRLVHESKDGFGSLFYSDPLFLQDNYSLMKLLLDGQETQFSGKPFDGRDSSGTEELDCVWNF
Assay: universal protein binding microarray (PBM); transcription factors of Arabidopsis thaliana; high values mean tight binding
Details: protein: recombinant; tags: GST; chain copies: 2; dsDNA, one strand shown

Prompt: I would be grateful if you could share the reported binding signal for `CACGGCTC` .
Completion: 0.18 E-score

Prompt: Look up binding signal: `AGGAAAGC`
Completion: 0.0813 E-score

Prompt: # binding signal lookup, item `AAGCAAAC`
Completion: 0.355 E-score

Prompt: Please look up its binding signal: `CTTGCGTA`
Completion: 0.474 E-score

Prompt: Which measured binding signal value corresponds to `GGAAGTCA` ?
Completion: 0.0837 E-score

Prompt: GET /values?readout=binding signal&item= `GTACGCCA`
Completion: 0.45 E-score

Prompt: GET /values?readout=binding signal&item= `TTAAGAAA`
Completion: 0.227 E-score

Prompt: Can you look up the measured binding signal of `ACACGGCT` for me?
Completion: 0.335 E-score

Prompt: Look up binding signal for this sequence: `GAGGTAAC`
Completion: 0.2 E-score

Prompt: Need binding signal of `GAAGTAAA` , thanks.
Completion: 0.305 E-score

Prompt: Fill blank: measured binding signal of the sequence `GTTGCGTA` is ____.
Completion: 0.49 E-score

Prompt: Name the reported binding signal value associated with the sequence `ACACGTAT`
Completion: 0.369 E-score

Prompt: Looking for the measured binding signal of `CGTATACG` , can you help?
Completion: 0.283 E-score

Prompt: Requested read-out: binding signal. Entry: `ACACGCCT`
Completion: 0.411 E-score

Prompt: Consider the sequence shown here: `GCAAGAAA` What is its recorded binding signal?
Completion: 0.401 E-score

Prompt: I would be grateful if you could share the reported binding signal for `ACGCAACA` .
Completion: 0.484 E-score

Prompt: I have this sequence here, `GACGTCAA` , and I need its recorded binding signal.
Completion: 0.19 E-score

Prompt: Name the reported binding signal value associated with the sequence `ACTTGACC`
Completion: 0.0507 E-score

Prompt: Any idea what binding signal was measured for `AGTCAACG` ?
Completion: 0.0699 E-score

Prompt: Any idea what its binding signal is? The sequence is `CAAGTCAA`
Completion: 0.234 E-score

Prompt: Any idea what its binding signal is? The sequence is `GAGGAAAA`
Completion: 0.152 E-score

Prompt: Fill blank: measured binding signal of the sequence `GCGTATAA` is ____.
Completion: 0.409 E-score

Prompt: Which binding signal value is on record for `AGGAAACT` ?
Completion: 0.186 E-score

Prompt: Returns the measured binding signal for the input sequence. Input: `GCACGGCA`
Completion: 0.461 E-score

Prompt: Fill in: binding signal of `GTTCCGTA` is ___
Completion: 0.373 E-score

Prompt: # query: binding signal of entry `CACGTCAC`
Completion: 0.464 E-score

Prompt: Field request: binding signal | item: `AATTACGT`
Completion: 0.421 E-score

Prompt: Requested field: binding signal. Item: `GACGCAAA`
Completion: 0.411 E-score

Prompt: # query: binding signal of entry `CGCACGCA`
Completion: 0.42 E-score

Prompt: Give the measured binding signal of `GTCAACAA` .
Completion: 0.136 E-score

Prompt: What binding signal value was documented for this sequence, `CGAAGTAA` ?
Completion: 0.279 E-score

Prompt: Query: binding signal; subject: `GAGACGTA`
Completion: 0.331 E-score

Prompt: So what's the measured binding signal for this one? `AACGTGTA`
Completion: 0.432 E-score

Prompt: // lookup binding signal for `TGAAGTAA`
Completion: 0.323 E-score

Prompt: Any idea what its binding signal is? The sequence is `ACGGAAGC`
Completion: 0.298 E-score

Prompt: What value of binding signal has been reported for the following sequence? `ACGTACGC`
Completion: 0.402 E-score

Prompt: Return reported binding signal; argument: `ACACACGC`
Completion: 0.423 E-score

Prompt: Give the measured binding signal of `ACACGACA` .
Completion: 0.417 E-score

Prompt: Name the reported binding signal value associated with the sequence `CCCCGCCC`
Completion: 0.343 E-score

Prompt: Any idea what its binding signal is? The sequence is `GTTAAGTA`
Completion: 0.123 E-score

Prompt: Fill in the blank: the reported binding signal of `ACACGCCA` is ____.
Completion: 0.492 E-score

Prompt: Record request: binding signal value, item `ACCCCGCC`
Completion: 0.264 E-score

Prompt: May I ask what binding signal has been recorded for `ATTGCTTG` ?
Completion: 0.408 E-score

Prompt: Could you share which binding signal value was measured for `GTAAGTCA` ?
Completion: 0.268 E-score

Prompt: Look at this sequence and give its reported binding signal. `CGTCAACA`
Completion: 0.196 E-score

Prompt: Given the entry `GCACGCGA` , report its measured binding signal.
Completion: 0.429 E-score
